# Test Description: High-throughput drug toxicity screening in the BPDCN cell line Cal-1 (AID 1224825);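 note: cells exposed to compounds for 48 h; 100% = DMSO and 0% = bortezomib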
# Test Parameters: Cal-1 BPDCN cell viability, qHTS; at 45.8 µM (top of the series) unless noted
Each entry below carries its reported viability (% of control).
Output spec: scalar in %, unitless text.

Consider the reported viability (% of control) for these compounds:
Compound	viability (% of control) / %
O=c1oc2c(O)c(O)cc3c(=O)oc4c(O)c(O)cc1c4c23	131
CCn1cc(C(=O)O)c(=O)c2cc(F)c(N3CCN(C)CC3)cc21	97.9
CCN(CC)CC#CCOC(=O)C(O)(c1ccccc1)C1CCCCC1 (centres undefined)	104

*Q* For the compound "CCCOc1ccc(C(=O)OCCN(CC)CC)cc1N" , report viability (% of control).
*A* 105

*Q* Look up and state reported viability (% of control) for "O=S(=O)(O)CCS"
*A* 32.1

*Q* // fetch viability (% of control) given entry "COc1ccc2c(c1)c(CC(=O)OCC(=O)O)c(C)n2C(=O)c1ccc(Cl)cc1"
*A* 119

*Q* Fill in reported viability (% of control) for this entry: "Cn1nnc2c(C(N)=O)ncn2c1=O"
*A* 80.1

*Q* State its viability (% of control) for this compound: "O=C(N[C@H](CO)[C@H](O)c1ccc([N+](=O)[O-])cc1)C(Cl)Cl"
*A* 116

*Q* Please give the documented viability (% of control) of "Cc1cccc(N(C)C(=S)Oc2ccc3ccccc3c2)c1"
*A* 79.3

---

# System: C33A
# Test Description: Primary qHTS to identify gynecologic anti-cancer compounds using libraries of approved drugs and bioactive compounds (AID 1345084); note: nearly all actives have a fitted effect of over 55% in size
# Test Parameters: Gynecologic cancer cell panel viability, ATPlite luminescence, 48 h; series mostly up to 57.5 µM
Results filed as inconclusive are left out. Active and inactive are the calls of the source. Calls come from the whole dose curve; as a rule, active = well fitted cell-killing curve with a large enough effect; inconclusive = small, poorly fitted or top-dose-only effect, or effect the other way; inactive = flat fitted curve, though single readings scatter.
Reply using exactly one outcome from active, inactive

Compound	Class Name
CO[C@@H]1[C@@H](OC(N)=O)[C@@H](O)[C@H](Oc2ccc3c(O)c(NC(=O)c4ccc(O)c(CC=C(C)C)c4)c(=O)oc3c2C)OC1(C)C	inactive
CCN(C)C(=O)Oc1cccc([C@H](C)N(C)C)c1	inactive
CC[C@H](NC(C)C)[C@H](O)c1ccc(O)c2[nH]c(=O)ccc12	inactive

*Q* Dear all, I need the recorded test outcome for "CC(C)(Sc1cc(C(C)(C)C)c(O)c(C(C)(C)C)c1)Sc1cc(C(C)(C)C)c(O)c(C(C)(C)C)c1" , thank you.
*A* inactive

*Q* Which outcome was assigned to "COc1ccc(C(=O)CC(=O)c2ccc(C(C)(C)C)cc2)cc1" in this test?
*A* inactive

*Q* Short answer needed: outcome of this test for "NC1(c2ccc(-c3nc4ccn5c(=O)[nH]nc5c4cc3-c3ccccc3)cc2)CCC1" ?
*A* inactive

*Q* Record request — test call for "CCCc1cc(C(N)=S)ccn1"
*A* inactive

*Q* Hey, what did the test say about "COc1cccc(N(C)C(=S)Oc2ccc3c(c2)CCCC3)n1" ?
*A* inactive

*Q* Kindly provide the recorded test outcome for the following compound: "Nc1ccc(S(=O)(=O)Nc2ccccn2)cc1"
*A* inactive

*Q* What did this assay record as the result for "CC(=O)Oc1ccccc1C(=O)Nc1ncc([N+](=O)[O-])s1" ?
*A* inactive

---

# Test Description: Cell Viability - BJ (AID 421);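 note: potency is the fitted concentration of half-maximal effect; cells exposed to compound for 40 hours at 37 °C before readout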
# Test Parameters: BJ fibroblast viability, qHTS
Records with an inconclusive call do not appear. Calls of active or inactive are those of the source. The call rests on the fitted dose curve.
Would you mind answering with one of these outcomes? active, inactive

Below are worked cases with known answers.
1) Cc1ccnc2c1NC(=O)c1cccnc1N2C1CC1 inactive
2) CC1=NN(c2ccccc2)C(=O)C1 inactive
3) O=C(O)c1cc(=O)[nH]c(=O)[nH]1 inactive
4) Cc1nnc(NS(=O)(=O)c2ccc(N)cc2)s1 inactive
5) Cc1cc(NS(=O)(=O)c2ccc(N)cc2)no1 inactive

*Q* Hi team, can someone confirm the assay call for "CN(C)c1ccc(C(=C2C=CC(=[N+](C)C)C=C2)c2ccc(N(C)C)cc2)cc1" ?
*A* active

*Q* Write down the call the test reported for this molecule. Item: "NNC(=O)c1ccncc1"
*A* inactive

*Q* Record lookup: outcome of this test for "O=C(N[C@H](CO)[C@H](O)c1ccc([N+](=O)[O-])cc1)C(Cl)Cl" ?
*A* inactive

---

# Test Description: qHTS profiling of the MIPE4 collection as inhibitors of Plasmodium falciparum (3D7) proliferation (AID 743344);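 note: scaled between DMSO vehicle wells and 0.29 µM artemisinin as full inhibition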
# Test Parameters: P. falciparum 3D7 in erythrocytes, SYBR Green DNA fluorescence, 72 h; at 28.5 µM (top of the series) unless noted
Parameter Measured: parasite growth, % of DMSO control (%)
Your answer is read as %, so omit the unit and give the number.

Worked cases, parasite growth, % of DMSO control given:
Compound	parasite growth, % of DMSO control / %
Cc1nnc(NS(=O)(=O)c2ccc(N)cc2)s1	22.2
CCn1cc(C(=O)O)c(=O)c2cc(F)c(N3CCNCC3)nc21	35.6

Read the next record carefully.
*Q* // fetch parasite growth, % of DMSO control given entry Cc1oc(=O)oc1CN1CCN(c2cc3c(cc2F)c(=O)c(C(=O)O)c2n3C(C)S2)CC1 (stereo not drawn)
*A* 24.1

---

# Tested on: Es-2
# Test Description: Primary qHTS to identify gynecologic anti-cancer compounds using libraries of approved drugs and bioactive compounds (AID 1345084); note: nearly all actives have a fitted effect of over 55% in size; note: potency is the fitted concentration of half-maximal effect
# Test Parameters: Gynecologic cancer cell panel viability, ATPlite luminescence, 48 h; series mostly up to 57.5 µM
Records with an inconclusive call do not appear. Active and inactive are the calls of the source. Calls come from the whole dose curve; as a rule, active = well fitted cell-killing curve with a large enough effect; inconclusive = small, poorly fitted or top-dose-only effect, or effect the other way; inactive = flat fitted curve, though single readings scatter.
Parameter Measured: Potency

As a guide, the following entries are already answered.
Compound	Potency
CN(C)c1ccc(C(=C2C=CC(=[N+](C)C)C=C2)c2ccc(N(C)C)cc2)cc1	1.78 µM (active)
O=C(O)c1cn(C2CC2)c2cc(N3CCNCC3)c(F)cc2c1=O	inactive
O=C(O)c1cccnc1	inactive
Cc1cccc(Nc2ccncc2S(=O)(=O)NC(=O)NC(C)C)c1	inactive
CCn1cc(C(=O)O)c(=O)c2cc(F)c(N3CCNCC3)nc21	inactive
COc1cc2ncnc(Nc3cccc(Cl)c3)c2cc1OC	inactive
Nc1ccc(S(=O)(=O)Nc2ccccn2)cc1	inactive
CC(C)Cn1cnc2c(N)nc3ccccc3c21	inactive
O=C(O)CSCC(=O)NC1CCSC1=O (configuration not stated)	inactive
Nc1nc(=S)c2[nH]cnc2[nH]1	7.08 µM (active)

*Q* Identify Potency associated with the compound "CCCN[C@H]1CCc2nc(N)sc2C1"
*A* inactive

*Q* Answer with reported Potency of "CN1CCN(c2c(F)cc3c(=O)c(C(=O)O)cn4c3c2OCN4C)CC1"
*A* inactive

---

# Test Description: Stat Signaling Pathway (AID 446);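 note: ME-180 cervical cancer cells given 40 pM IL-6 alongside compound; SIE-controlled beta-lactamase reporter measured as 460/530 nm FRET emission ratio; % is set by controls: 0 for no effect and ±100 for the full control effect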
# Test Parameters: ME-180 (cervical carcinoma) SIE beta-lactamase reporter, IL-6 stimulated, 5 h; at 17.2 µM (top of the series) unless noted
Inconclusive results are not listed. The source made the active and inactive calls. Calls come from the whole dose curve; as a rule, active = well fitted curve in either direction with a large enough effect (not every such curve was filed as active); inconclusive = small, poorly fitted or top-dose-only effect, or another doubt; inactive = flat fitted curve, though single readings scatter.
Parameter Measured: activity, negative = inhibition

Compound	Endpoint Value
CC(=O)[C@H]1CC[C@H]2[C@@H]3CCC4=CC(=O)CC[C@]4(C)[C@H]3CC[C@]12C	2.68% (inactive)
N[C@@H](Cc1ccc(O)c(O)c1)C(=O)O	4.83% (inactive)
NC(=O)c1cccc(N)c1	1.75% [at 38 µM] (inactive)
CCC(=O)O[C@]1(C(=O)CCl)[C@@H](C)C[C@H]2[C@@H]3CCC4=CC(=O)C=C[C@]4(C)[C@@]3(F)[C@@H](O)C[C@@]21C	-5.77% (inactive)
CC1=NN(c2ccccc2)C(=O)C1	-2.54% (inactive)

*Q* For the compound "COc1cc([C@@H]2c3cc4c(cc3[C@H](O)[C@H]3COC(=O)[C@H]23)OCO4)cc(OC)c1OC" , report activity, negative = inhibition.
*A* 6.38% (inactive)

*Q* Give a short answer stating reported activity, negative = inhibition for "Nc1nc(F)nc2c1ncn2[C@@H]1O[C@H](CO)[C@@H](O)[C@@H]1O" .
*A* 7.84% (inactive)

*Q* Consider the compound COc1ccccc1OCC(O)COC(N)=O (stereo unspecified) . State its measured activity, negative = inhibition.
*A* 6.13% (inactive)

*Q* Tell me measured activity, negative = inhibition for "Nc1[nH]c(=O)ncc1F" please.
*A* -4.22% (inactive)

*Q* Determine its reported activity, negative = inhibition: "CCCOc1ccc(C(=O)OCCN(CC)CC)cc1N"
*A* 1.44% (inactive)

*Q* Input "COc1cnc(NS(=O)(=O)c2ccc(N)cc2)nc1" , output reported activity, negative = inhibition.
*A* -4.71% (inactive)

---

# Test system: TAB165
# Test Description: qHTS profiling for inhibitors of Plasmodium falciparum proliferation (AID 504749); note: nearly all actives have a fitted effect of over 60% in size
# Test Parameters: P. falciparum in erythrocytes, SYBR Green DNA, 72 h; series mostly up to 28.7 µM
Records with an inconclusive call do not appear. Active and inactive are the calls of the source. Calls follow the shape of the dose curve; as a rule, active = well fitted inhibition curve with a large enough effect; inconclusive = small, poorly fitted or top-dose-only effect; inactive = flat fitted curve, though single readings scatter.
Respond with a class label; see yes (1) = active, no (0) = inactive

Molecule	Class Name
CNNCc1ccc(C(=O)NC(C)C)cc1	no (0)

*Q* How did this test come out for "CCCCOc1ccc(CC(=O)NO)cc1" ?
*A* yes (1)

*Q* Called result for "CC[C@H](C)C(=O)O[C@H]1C[C@@H](C)C=C2C=C[C@H](C)[C@H](CC[C@@H]3C[C@@H](O)CC(=O)O3)[C@H]21"
*A* no (0)

*Q* Per the assay record, what outcome was assigned to "Nc1[nH]c(=O)ncc1F" ?
*A* no (0)
